log k HSA listing for selected molecules.
Test system: HSA
Conditions: calibration set; log k = log (%binding/(101-%binding)) from literature % binding
Output: the number by itself.

Molecule: CNC(=C[N+](=O)[O-])NCCSCc1csc(CN(C)C)n1
Tested On: HSA
log k HSA: -0.6
--
Molecule: CC(C)NCC(O)COc1cccc2ccccc12 (centres unmarked)
Tested On: HSA
log k HSA: 0.3
--
Molecule: NC(=O)N1c2ccccc2C=Cc2ccccc21 [Carbamazepine]
Tested On: HSA
log k HSA: 0.5

Q: Answer with the recorded log k HSA of CC(=O)CC(c1ccccc1)c1c(O)c2ccccc2oc1=O (centres unmarked) only.
Result: 1.5

Q: Answer with the recorded log k HSA of `COc1cc(Cc2cnc(N)nc2N)cc(OC)c1OC` only.
Result: -0.2

Q: Answer with the recorded log k HSA of `COc1ccc2c(c1)c(CC(=O)O)c(C)n2C(=O)c1ccc(Cl)cc1` only.
Result: 1.8

Q: Answer with the recorded log k HSA of COC(=O)C1=C(C)NC(C)=C(C(=O)OCCN(C)Cc2ccccc2)C1c1cccc([N+](=O)[O-])c1 (centres unmarked) only.
Result: 1.2

Q: Answer with the recorded log k HSA of `CC(=O)Nc1ccc(O)cc1` only.
Result: -0.8

---

Test: CHI lipophilicity by gradient reversed-phase HPLC (Gemini NX-C-18)
Conditions: reversed-phase HPLC, Gemini NX-C-18 column (50 x 3 mm, 5 µm)
chromatographic logP listing for selected compounds.

Compound: Cc1ccc(O)c([C@H](CCN(C(C)C)C(C)C)c2ccccc2)c1 [Tolterodine]
Readout Name: chromatographic logP
Meas Value: 4.95

Q: Answer with the recorded chromatographic logP of OCCOCCN1CCN(C2=Nc3ccccc3Sc3ccccc32)CC1 [Quetiapine] only.
Result: 2.69

Q: Answer with the recorded chromatographic logP of COc1ccc([C@@H]2Sc3ccccc3N(CCN(C)C)C(=O)[C@@H]2OC(C)=O)cc1 [Diltiazem] only.
Result: 3.12

Q: Answer with the recorded chromatographic logP of CCN(CC)CCNC(=O)c1ccc(N)cc1 [Procainamide] only.
Result: 0.95

Q: Answer with the recorded chromatographic logP of CCn1cc(C(=O)O)c(=O)c2cc(F)c(N3CCNC(C)C3)c(F)c21 (stereo not drawn) [Lomefloxacin] only.
Result: -0.14

Q: Answer with the recorded chromatographic logP of COc1ccc(Cl)cc1C(=O)NCCc1ccc(S(=O)(=O)NC(=O)NC2CCCCC2)cc1 [Glibenclamide] only.
Result: 3.17

Q: Answer with the recorded chromatographic logP of CCOc1ccccc1OCCN[C@H](C)Cc1ccc(OC)c(S(N)(=O)=O)c1 [Tamsulosin] only.
Result: 2.01

Q: Answer with the recorded chromatographic logP of CCCCN1CCCCC1C(=O)Nc1c(C)cccc1C (stereo not drawn) [Bupivacaine] only.
Result: 3.97

Q: Answer with the recorded chromatographic logP of CCCN1C[C@H](CSC)C[C@@H]2c3cccc4[nH]cc(c34)C[C@H]21 [Pergolide] only.
Result: 3.81

---

Experiment: CHI lipophilicity by gradient reversed-phase HPLC (Gemini NX-C-18)
Settings: reversed-phase HPLC, Gemini NX-C-18 column (50 x 3 mm, 5 µm)
Readout Name: chromatographic logP
Output: the number by itself.

Study these solved cases before continuing.
Molecule: COc1cc(N)c(Cl)cc1C(=O)NC1CCN(CCCOc2ccc(F)cc2)CC1OC (stereo not shown) [Cisapride]
Meas Value: 3.17
//
Molecule: COCC(=O)O[C@]1(CCN(C)CCCc2nc3ccccc3[nH]2)CCc2cc(F)ccc2[C@@H]1C(C)C [Mibefradil]
Meas Value: 3.99

Q: Answer with the recorded chromatographic logP of CN(C)CCCN1c2ccccc2Sc2ccc(Cl)cc21 [Chlorpromazine] only.
Result: 0.97

Q: Answer with the recorded chromatographic logP of O=C(O[C@@H]1C[C@@H]2C[C@H]3C[C@H](C1)N2CC3=O)c1c[nH]c2ccccc12 [Dolasetron] only.
Result: 1.46
